target: wild-type SBC (SOCS2-ElonginB-ElonginC) (Homo sapiens, UniProt O14508+Q15369+Q15370); construct: His6 (N, cleaved yes); made in house; host or cells: E. coli BL21(DE3); test: SPR direct binding, wild-type SBC immobilized on the chip; conditions: Table 2; biotinylated wild-type SBC immobilized, peptide 0.08-60 μM, 20 mM HEPES pH7.5, 150 mM NaCl, 1 mM TCEP, 0.005% Tween20, 10 °C, steady-state 1:1 model; mean ± s.e.m., four independent experiments; read-out: SPR KD
Sequence (O14508 32-198): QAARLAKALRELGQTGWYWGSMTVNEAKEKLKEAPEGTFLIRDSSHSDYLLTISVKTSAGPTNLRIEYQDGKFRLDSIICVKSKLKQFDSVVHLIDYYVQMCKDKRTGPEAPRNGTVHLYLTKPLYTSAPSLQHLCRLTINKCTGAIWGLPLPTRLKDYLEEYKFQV
Sequence (Q15370 1-104 partner limits assumed): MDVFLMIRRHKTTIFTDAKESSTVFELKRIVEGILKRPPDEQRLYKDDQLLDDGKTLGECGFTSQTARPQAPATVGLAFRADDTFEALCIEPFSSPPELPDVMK
Sequence (Q15369 17-112 partner limits assumed): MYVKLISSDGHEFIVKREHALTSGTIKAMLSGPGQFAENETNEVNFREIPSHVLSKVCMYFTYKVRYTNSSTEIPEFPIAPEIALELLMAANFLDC
pKd: −log10 of the molar value. Where a SMILES comes first, the peptide text is derived from it. [ ]: non-standard residue; d: D form. pY = N[C@@H](Cc1ccc(OP(=O)(O)O)cc1)C(=O)O
Label rule, in plain words: pKd of 5 and up is TRUE, under 5 is FALSE.

>>> class_name("CC[C@H](C)[C@H](NC(=O)[C@@H](NC(=O)[C@H](Cc1ccc(OP(=O)(O)O)cc1)NC(=O)[C@H](CCC(=O)O)NC(=O)[C@H](Cc1ccccc1)NC(=O)[C@H](CO)NC(=O)[C@H](C)N)[C@@H](C)O)C(=O)N[C@@H](CC(C)C)C(=O)N[C@@H](C)C(=O)N1CCC[C@H]1C(=O)N[C@@H](CO)C(N)=O [ASFEpYTILAPS] (H-ASFE[pY]TILAPS-NH2)")
"FALSE"
>>> class_name("CC[C@H](C)[C@H](NC(=O)[C@@H](NC(=O)[C@H](Cc1ccc(OP(=O)(O)O)cc1)NC(=O)[C@H](C)NC(=O)[C@H](Cc1ccccc1)NC(=O)[C@H](CO)NC(=O)[C@H](C)N)[C@@H](C)O)C(=O)N[C@@H](CC(C)C)C(=O)N[C@@H](CC(=O)O)C(=O)N1CCC[C@H]1C(=O)N[C@@H](CO)C(N)=O [ASFApYTILDPS] (H-ASFA[pY]TILDPS-NH2)")
"FALSE"
>>> class_name("CC[C@H](C)[C@H](NC(=O)[C@H](Cc1c[nH]cn1)NC(=O)[C@@H](NC(=O)[C@H](CO)NC(=O)[C@@H](NC(=O)[C@H](Cc1ccc(OP(=O)(O)O)cc1)NC(=O)[C@H](CC(=O)O)NC(=O)[C@@H]1CCCN1C(=O)[C@@H](NC(=O)[C@@H]1CCCN1)C(C)C)[C@@H](C)O)[C@@H](C)CC)C(=O)N[C@@H](C)C(N)=O")
"TRUE"
>>> class_name("CC[C@H](C)[C@H](NC(=O)[C@H](C)NC(=O)[C@@H](NC(=O)[C@H](CO)NC(=O)[C@@H](NC(=O)[C@H](Cc1ccc(OP(=O)(O)O)cc1)NC(=O)[C@H](CC(=O)O)NC(=O)[C@@H]1CCCN1C(=O)[C@@H](NC(=O)[C@@H]1CCCN1)C(C)C)[C@@H](C)O)[C@@H](C)CC)C(=O)N[C@H](C(N)=O)C(C)C [PVPDpYTSIAIV] (H-PVPD[pY]TSIAIV-NH2)")
"TRUE"
>>> class_name("CC[C@H](C)[C@H](NC(=O)[C@H](CO)NC(=O)[C@H](C)NC(=O)[C@H](Cc1ccc(OP(=O)(O)O)cc1)NC(=O)[C@H](CC(=O)O)NC(=O)[C@@H]1CCCN1C(=O)[C@@H](NC(=O)[C@@H]1CCCN1)C(C)C)C(=O)N[C@@H](Cc1c[nH]cn1)C(=O)N[C@H](C(=O)N[C@H](C(N)=O)C(C)C)[C@@H](C)CC [PVPDpYASIHIV] (H-PVPD[pY]ASIHIV-NH2)")
"TRUE"
>>> class_name("CC[C@H](C)[C@H](NC(=O)[C@H](CO)NC(=O)[C@@H](NC(=O)[C@H](Cc1ccc(OP(=O)(O)O)cc1)NC(=O)[C@H](CC(=O)O)NC(=O)[C@@H]1CCCN1C(=O)[C@H](Cc1ccc(O)cc1)NC(=O)[C@@H]1CCCN1)[C@@H](C)O)C(=O)N[C@@H](Cc1c[nH]cn1)C(=O)N[C@H](C(=O)N[C@H](C(N)=O)C(C)C)[C@@H](C)CC [V(−3)Y] (H-PYPD[pY]TSIHIV-NH2)")
"TRUE"

Hello, the source for this data is paper PMC6557900, in case you need it.
